# targetOrTestSystem: T1, monomeric RANK (UniProt O35305 31-214)
# T1 sequence (looked up): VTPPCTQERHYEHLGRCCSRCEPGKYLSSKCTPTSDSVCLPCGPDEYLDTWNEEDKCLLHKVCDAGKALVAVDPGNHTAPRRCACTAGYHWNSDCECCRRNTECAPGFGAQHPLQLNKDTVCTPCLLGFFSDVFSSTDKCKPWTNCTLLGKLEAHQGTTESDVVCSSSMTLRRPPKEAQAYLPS
# methodSummary: SPR
parameterMeasured: Kd (nM)
Record the value in nM, omitting the unit from your answer.

{"binder": "RANKL K194E/Q236H (ligand, Homotrimer; limits by convention (mouse RANKL ectodomain core)) KPEAQPFAHLTINAASIPSGSHKVTLSSWYHDRGWAEISNMTLSNGKLRVNQDGFYYLYANISFRHHETSGSVPTDYLHLMVYVVKTSEKIPSSHNLMKGGSTKNWSGNSEFHFYSINVGGFFKLRAGEEISIQVSNPSLLDPDQDATYFGAFKVQDID", "quantitativeResult": 67}
{"binder": "RANKL Q236H (ligand, Homotrimer; limits by convention (mouse RANKL ectodomain core)) KPEAQPFAHLTINAASIPSGSHKVTLSSWYHDRGWAKISNMTLSNGKLRVNQDGFYYLYANISFRHHETSGSVPTDYLHLMVYVVKTSEKIPSSHNLMKGGSTKNWSGNSEFHFYSINVGGFFKLRAGEEISIQVSNPSLLDPDQDATYFGAFKVQDID", "quantitativeResult": 81}
{"binder": "RANKL K194E/Q236H/F269Y (ligand, Homotrimer; limits by convention (mouse RANKL ectodomain core)) KPEAQPFAHLTINAASIPSGSHKVTLSSWYHDRGWAEISNMTLSNGKLRVNQDGFYYLYANISFRHHETSGSVPTDYLHLMVYVVKTSEKIPSSHNLMKGGSTKNWSGNSEYHFYSINVGGFFKLRAGEEISIQVSNPSLLDPDQDATYFGAFKVQDID", "quantitativeResult": 29}

Here's the next entry for you.
Entry RANKL K194E (ligand, Homotrimer; limits by convention (mouse RANKL ectodomain core). Species inferred: the printed numbering fits mouse) KPEAQPFAHLTINAASIPSGSHKVTLSSWYHDRGWAEISNMTLSNGKLRVNQDGFYYLYANISFRHHETSGSVPTDYLQLMVYVVKTSEKIPSSHNLMKGGSTKNWSGNSEFHFYSINVGGFFKLRAGEEISIQVSNPSLLDPDQDATYFGAFKVQDID has what Kd?
899
